- System: U2OS
- method_description: Multiplex assay against U2OS
- Format: toxicity, cell-based
- study_conditions: human, 12 h, 1 µM, compound concentration 1 uM, replicate 2
assay_endpoint: Population Fragmented Nuclei (%)
Give the value; after it, write the unit.

Here's what some known entries look like.
>>> result("COc1cc2ncnc(Nc3ccc(F)c(Cl)c3)c2cc1NC(=O)/C=C/CN1CCCCC1 [DACOMITINIB ANHYDROUS]")
"11%"
>>> result("CCn1c(=O)c(-c2ccc(-c3cncs3)cc2Cl)cc2cnc(Nc3ccc(N4CCN(C)CC4)cc3)nc21")
"9%"
>>> result("COc1ccc(-c2ccc3c(N4CCOCC4)nc(N4C[C@@H](C)O[C@@H](C)C4)nc3n2)cc1CO")
"11%"
>>> result("CN1C2CCC1CC(OC(c1ccc(F)cc1)c1ccc(F)cc1)C2.Cl (stereo not drawn)")
"5%"
>>> result("CN1CCN(C(=O)C(C)(C)c2ccc(C(=O)Nc3cn4cc(-c5cc(C(C)(C)C)cc(C(C)(C)C)c5)ccc4n3)cc2)CC1")
"6%"

Qu. Please report the recorded Population Fragmented Nuclei (%) for CNc1cc(Oc2cc(C(=O)Nc3cc(N4CCN(C)CC4)cc(C(F)(F)F)c3)ccc2C)ncn1 .
Ans. 10%

Qu. Please report the recorded Population Fragmented Nuclei (%) for Cc1ccc(C(=O)Nc2cccc(C(F)(F)F)c2)cc1Nc1nc(-c2cccnc2)nc2c1cnn2C .
Ans. 14%

Qu. Please report the recorded Population Fragmented Nuclei (%) for COc1cc(N2CCN(C)CC2)ccc1Nc1ncc2c(n1)N(C)c1ccccc1C(=O)N2C .
Ans. 5%

====

Recorded Total Cell Count values for a group of compounds are listed next.
- System: Fibroblast
- method_description: Multiplex assay against human fibroblast
- Format: toxicity, cell-based
- study_conditions: 24 h, 1 µM, compound concentration 1 uM, replicate 1

>>> result("CCOc1cc(C(=O)N2CCC(N3CCN(C)CC3)CC2)ccc1Nc1ncc2c(n1)N(C1CCCC1)c1ccccc1C(=O)N2C")
205
>>> result("Cc1ccc2nc(NCCN)c3ncc(C)n3c2c1.O=C(O)C(F)(F)F.O=C(O)C(F)(F)F")
253
>>> result("O=C(Cc1ccc(-c2ccc(OCCN3CCOCC3)cc2)cn1)NCc1ccccc1 [TIRBANIBULIN]")
84

Kindly consider the entry below.
Qu. Please report the recorded Total Cell Count for COc1cccc2cc(-c3nc([C@H]4CC[C@H](C(=O)O)CC4)n4ncnc(N)c34)[nH]c12 [OSI-027] .
Ans. 302

====

- System: HEK-293T
- method_description: Multiplex assay against HEK293T
- Type: toxicity, cell-based
- study_conditions: human, 12 h, 10 µM, compound concentration 10 uM, replicate 2
Total Cell Count vs 1000: at or above is y, below is n.

Example results:
>>> category_label("CCc1cccc(CC)c1NC(=O)c1nn(C)c2c1CCc1cnc(Nc3ccc(N4CCN(C)CC4)cc3OC)nc1-2")
"y"
>>> category_label("O=C(Nc1ccc(-n2nc(-c3cccnc3)cc2C(F)(F)F)cn1)c1ccc(-c2ccccc2)c(F)c1 [BI 2049]")
"n"
>>> category_label("O=C1N/C(=N/c2ccccc2F)S/C1=C\\c1ccc(C(=O)O)cc1")
"n"
>>> category_label("COC(=N)c1nc2ccc3ncnc(Nc4ccc(OC)cc4F)c3c2s1")
"y"
>>> category_label("O=C1NC(=O)C(c2cnc3ccccn23)=C1c1cn2c3c(cc(F)cc13)CN(C(=O)N1CCCCC1)CC2 [LY-2090314]")
"n"

Qu. Threshold query (Total Cell Count >= 1000) on NC(=O)c1cccc(-c2cc(Nc3ccc(OC(F)(F)F)cc3)ncn2)c1
Ans. y

Qu. Threshold query (Total Cell Count >= 1000) on COc1ccc(-c2ccc3c(N4CCOCC4)nc(N4C[C@@H](C)O[C@@H](C)C4)nc3n2)cc1CO [Ku-0063794]
Ans. y

Qu. Threshold query (Total Cell Count >= 1000) on CNC(=O)c1ccc(Nc2nc(OC3CCCC3)c3c(-c4ccc5nc(C)oc5c4)c[nH]c3n2)c(OC)c1
Ans. y
